# Measurement target: human TRPM8 (Homo sapiens, UniProt Q7Z2W7)
# Construct: expressed in transfected cells; host or cells: Chinese hamster ovary (CHO) cells, T-REx tetracycline-inducible system, co-transfected with aequorin
# Sequence (Q7Z2W7 whole entry): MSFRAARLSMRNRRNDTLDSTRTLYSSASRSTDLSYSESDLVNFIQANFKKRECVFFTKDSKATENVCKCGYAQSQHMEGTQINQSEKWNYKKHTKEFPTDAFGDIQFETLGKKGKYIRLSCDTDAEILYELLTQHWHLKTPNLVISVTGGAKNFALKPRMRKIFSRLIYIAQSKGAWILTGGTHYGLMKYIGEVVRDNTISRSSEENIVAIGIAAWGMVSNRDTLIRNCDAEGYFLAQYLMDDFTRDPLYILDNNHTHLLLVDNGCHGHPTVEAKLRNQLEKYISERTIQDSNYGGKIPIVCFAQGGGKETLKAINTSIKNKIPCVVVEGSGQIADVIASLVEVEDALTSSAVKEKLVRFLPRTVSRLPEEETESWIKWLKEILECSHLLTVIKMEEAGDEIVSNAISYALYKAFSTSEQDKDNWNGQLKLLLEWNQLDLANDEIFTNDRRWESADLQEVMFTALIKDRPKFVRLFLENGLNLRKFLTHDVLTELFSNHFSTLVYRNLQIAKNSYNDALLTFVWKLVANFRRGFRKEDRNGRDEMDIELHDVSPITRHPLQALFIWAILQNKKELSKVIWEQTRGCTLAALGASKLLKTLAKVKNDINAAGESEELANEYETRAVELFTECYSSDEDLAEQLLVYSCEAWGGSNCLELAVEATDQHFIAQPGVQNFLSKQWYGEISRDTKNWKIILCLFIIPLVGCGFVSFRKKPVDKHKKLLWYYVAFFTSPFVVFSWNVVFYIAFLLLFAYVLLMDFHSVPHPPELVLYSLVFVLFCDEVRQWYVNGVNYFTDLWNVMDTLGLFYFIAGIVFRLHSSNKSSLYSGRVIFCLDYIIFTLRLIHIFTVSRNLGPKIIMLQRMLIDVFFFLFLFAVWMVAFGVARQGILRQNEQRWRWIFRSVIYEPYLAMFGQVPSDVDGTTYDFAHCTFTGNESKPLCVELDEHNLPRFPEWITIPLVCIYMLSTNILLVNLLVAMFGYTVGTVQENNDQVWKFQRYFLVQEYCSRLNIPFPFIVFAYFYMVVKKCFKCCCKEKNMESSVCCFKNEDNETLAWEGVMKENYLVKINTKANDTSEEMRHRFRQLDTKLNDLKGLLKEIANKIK
# Test summary: Luminescence readout assay for measuring intracellular calcium, icilin activation
# Format: cell-based
# Condition details: CHO cells expressing human TRPM8, aequorin luminescence, 1 μM icilin activation; read-out: hTRPM8 IC50
Observation type: pIC50
The meaning of pIC50 here: minus log10 of the concentration in molar units.

> print(dat)
                                   molecule                        measurement.target  value
1  O=C(N[C@@H](c1ccc(C(F)(F)F)cc1)c1ncccc1F)c1ccc(=O)[nH]n1  human TRPM8 (Homo sapiens, UniProt Q7Z2W7)   7.41
2  O=C(N[C@@H](c1ccc(C(F)(F)F)cc1)c1ncccc1C(F)(F)F)c1ccc2nccn2c1 [Example 254, 2,2,2-trifluoroacetate]  human TRPM8 (Homo sapiens, UniProt Q7Z2W7)   7.93
3  O=C(Cc1cccnc1)N[C@@H](c1ccc(C(F)(F)F)cc1)c1ncccc1C(F)(F)F  human TRPM8 (Homo sapiens, UniProt Q7Z2W7)   6.26
4  COc1cc(C(=O)N[C@@H](c2ccc(C(F)(F)F)cc2)c2ncccc2C(F)(F)F)ccn1  human TRPM8 (Homo sapiens, UniProt Q7Z2W7)   7.49
5  N#Cc1ccc(C(=O)N[C@@H](c2ccc(C(F)(F)F)cc2)c2ncccc2C(F)(F)F)nc1  human TRPM8 (Homo sapiens, UniProt Q7Z2W7)   7.16

Notebook: pull reported pIC50 for human TRPM8 (Homo sapiens, UniProt Q7Z2W7), entry "O=C(N[C@@H](c1cnc2ccc(Cl)cc2c1)c1ncccc1C(F)(F)F)c1ccc2cccnc2c1" 7.36

Provide value of pIC50 for this record tested with human TRPM8 (Homo sapiens, UniProt Q7Z2W7): "O=C1COc2cc(C(=O)N[C@@H](c3ccc(C(F)(F)F)cc3)c3ncccc3F)ccc2N1" 7.77

* * *

# Measurement target: human TRPM8 (Homo sapiens, UniProt Q7Z2W7)
# Construct: expressed in transfected cells; host or cells: Chinese hamster ovary (CHO) cells, T-REx tetracycline-inducible system, co-transfected with aequorin
# Test summary: Luminescence readout assay for measuring intracellular calcium, icilin activation
# Format: cell-based
# Condition details: CHO cells expressing human TRPM8, aequorin luminescence, 1 μM icilin activation; read-out: hTRPM8 IC50
Observation type: IC50
Your answer should be a number followed by the unit of measure.

Use the examples below as a reference point.
> print(dat)
                                   compound  observation.type    value
1  COC(=O)c1ccc(C(=O)N[C@@H](c2ccc(C(F)(F)F)cc2)c2ncccc2C(F)(F)F)cc1              IC50  52.7 nM
2  O=C(N[C@@H](c1ccc(Cl)c(Cl)c1)c1ncccc1F)c1ccc(=O)[nH]c1 [Example 250, 2,2,2-trifluoroacetate]              IC50  19.2 nM
3  Cc1ncc(C(=O)N[C@@H](c2ccc(C(F)(F)F)cc2)c2ncccc2C(F)(F)F)c(N)n1              IC50  94.9 nM

// next entry
Data request, read-out IC50, for "Cn1c(=O)c(=O)n(O)c2ccc(C(=O)N[C@@H](c3ccc(OC(F)(F)F)c(F)c3)c3ncccc3F)cc21" 22.4 nM

* * *

# Measurement target: human TRPM8 (Homo sapiens)
# Construct: expressed in transfected cells; host or cells: Chinese hamster ovary (CHO) cells, T-REx tetracycline-inducible system, co-transfected with aequorin
# Test summary: Luminescence readout assay for measuring intracellular calcium, icilin activation
# Format: cell-based
# Condition details: CHO cells expressing human TRPM8, aequorin luminescence, 1 μM icilin activation; read-out: hTRPM8 IC50
Observation type: log10 of IC50 (log10 of the value in nM)
A difference of one corresponds to tenfold IC50; all values are log10 with IC50 in nM.

Answered examples (5):
> print(dat)
                                   compound  observation.type  value
1  N#Cc1cc(C(=O)N[C@@H](c2ccc(C(F)(F)F)cc2)c2ncccc2F)c[nH]c1=O [Example 277]     log10 of IC50   2.27
2  O=C1CNc2cc(C(=O)N[C@@H](c3ccc(C(F)(F)F)cc3)c3ncccc3F)ccc2O1 [Example 75]     log10 of IC50   1.59
3  O=C(N[C@@H](c1ccc(OC(F)(F)F)c(F)c1)c1ncccc1F)c1ccc(=O)n(C[C@@H](O)C(F)(F)F)c1 [Example 409]     log10 of IC50   1.95
4  Cn1ccc(C(=O)N[C@@H](c2ccc(C(F)(F)F)cc2)c2ncccc2C(F)(F)F)cc1=O [Example 49]     log10 of IC50   2.10
5  O=C(NC(c1ccc(OC(F)(F)F)c(F)c1)c1c(F)cccc1F)c1ccc(=O)[nH]c1 (stereo not shown) [Example 418]     log10 of IC50   1.81

I'd like to know its log10 of IC50. The compound in question is O=C(N[C@@H](c1ccc(OC(F)(F)F)c(F)c1)c1ncccc1C(F)(F)F)c1ccc(=O)[nH]c1 [Example 383] 0.90

Name the recorded log10 of IC50 for Cc1cccnc1[C@@H](NC(=O)c1ccc(=O)[nH]c1)c1ccc(OC(F)(F)F)c(F)c1 [Example 347] . 1.00

* * *

# Measurement target: human TRPM8 (Homo sapiens)
# Construct: expressed in transfected cells; host or cells: Chinese hamster ovary (CHO) cells, T-REx tetracycline-inducible system, co-transfected with aequorin
# Test summary: Luminescence readout assay for measuring intracellular calcium, icilin activation
# Assay type: cell-based
# Condition details: CHO cells expressing human TRPM8, aequorin luminescence, 1 μM icilin activation; read-out: hTRPM8 IC50
Collected pIC50 values appear next to each entry.
Please keep in mind that pIC50 is minus log10 of the molar concentration; only the number is needed.

Here are 2 compounds together with their reported answers.
> print(dat)
                                   compound  observation.type  value
1  O=C(N[C@@H](c1ccc(C(F)(F)F)cc1)c1ncccc1C(F)(F)F)c1ccc(C(=O)O)nc1 [Example 285, 2,2,2-trifluoroacetate]             pIC50   5.67
2  O=C(O)c1cncc(C(=O)N[C@@H](c2ccc(C(F)(F)F)cc2)c2ncccc2C(F)(F)F)c1             pIC50   5.64

Field: next compound
Reported pIC50 for O=C(N[C@@H](c1ccc(C(F)(F)F)cc1)c1ccccc1Br)c1ccc2ncccc2c1 [Example 256, 2,2,2-trifluoroacetate] : what is it? 6.52

* * *

Entries and their pIC50
# Measurement target: human TRPM8 (Homo sapiens, UniProt Q7Z2W7)
# Construct: expressed in transfected cells; host or cells: Chinese hamster ovary (CHO) cells, T-REx tetracycline-inducible system, co-transfected with aequorin
# Test summary: Luminescence readout assay for measuring intracellular calcium, icilin activation
# Assay type: cell-based
# Condition details: CHO cells expressing human TRPM8, aequorin luminescence, 1 μM icilin activation; read-out: hTRPM8 IC50
Keep it numeric: pIC50 is minus log10 of the concentration in mol/L.

> print(dat)
                                   compound  observation.type  value
1  COc1ccc(C(=O)N[C@@H](c2ccc(F)cc2)c2ncccc2C(F)(F)F)cn1             pIC50   6.72
2  COc1ccc(C(=O)NC(c2ccc(C(F)(F)F)cc2)c2ncccc2F)cn1 (stereo not shown)             pIC50   7.71
3  O=C(N[C@@H](c1ccc(C(F)(F)F)cc1)c1c(F)cccc1F)c1ccc(=O)[nH]c1             pIC50   7.39

Which pIC50 is listed for "O=C(N[C@@H](c1ccc(C(F)(F)F)cc1)c1ncccc1F)c1ccc2oc(=O)[nH]c2c1" ? 8.35

Would you mind telling me what pIC50 value was observed for "N#Cc1cccnc1[C@@H](NC(=O)c1ccc2cccnc2c1)c1ccc(C(F)(F)F)cc1" ? 6.50

Which pIC50 is reported for this compound? "O=C(N[C@@H](c1ccc(OC(F)(F)F)cc1)c1ncccc1F)c1ccc(=O)[nH]n1" 7.64

I am curious: what pIC50 value has been reported for "O=C(N[C@@H](c1ccc(C(F)(F)F)cc1)c1ncccc1C(F)(F)F)c1cnc2ccccc2c1" ? 7.08

* * *

# Measurement target: human TRPM8 (Homo sapiens)
# Construct: expressed in transfected cells; host or cells: Chinese hamster ovary (CHO) cells, T-REx tetracycline-inducible system, co-transfected with aequorin
# Test summary: Luminescence readout assay for measuring intracellular calcium, icilin activation
# Type: cell-based
# Condition details: CHO cells expressing human TRPM8, aequorin luminescence, 1 μM icilin activation; read-out: hTRPM8 IC50
Observation type: IC50
Number first, unit second: that is the form wanted.

> print(dat)
                                   compound  observation.type    value
1  O=C(N[C@@H](c1ccc(C(F)(F)F)cc1)c1ncccc1C(F)(F)F)C1CCC(O)CC1 (stereo partly shown) [Example 242]              IC50  1030 nM
2  O=C(N[C@@H](c1ccc(C(F)(F)F)cc1)c1ncsc1Br)c1ccc2ncccc2c1 [Example 259, 2,2,2-trifluoroacetate]              IC50   128 nM
3  Cc1cccnc1[C@@H](NC(=O)c1ccc(=O)n(C)c1)c1ccc(C(F)(F)F)cc1 [Example 83, 2,2,2-trifluoroacetate]              IC50  39.2 nM

Tell me the measured IC50 of Cc1cc([C@H](NC(=O)c2ccc(=O)[nH]c2)c2ncccc2F)cc(C(F)(F)F)c1 [Example 333] , please. 658 nM

Which IC50 is listed for COc1ccc(C(NC(=O)c2ccc(=O)[nH]c2)c2ccc(OC(F)(F)F)c(F)c2)nc1 (stereo not shown) [Example 421] ? 611 nM

Any idea what IC50 was measured for Cn1cc(C(=O)N[C@@H](c2ccc(F)cc2)c2ncccc2F)ccc1=O [Example 341] ? 4280 nM

What measured IC50 goes with COc1ccnc(C(=O)N[C@@H](c2ccc(C(F)(F)F)cc2)c2ncccc2C(F)(F)F)c1 [Example 32] ? 143 nM

All values here come from patent US8710043B2.
